study.target: T1, UNK ZnF1-6 (called full-length) (human, UniProt Q9C0B0 30-357)
T1 sequence: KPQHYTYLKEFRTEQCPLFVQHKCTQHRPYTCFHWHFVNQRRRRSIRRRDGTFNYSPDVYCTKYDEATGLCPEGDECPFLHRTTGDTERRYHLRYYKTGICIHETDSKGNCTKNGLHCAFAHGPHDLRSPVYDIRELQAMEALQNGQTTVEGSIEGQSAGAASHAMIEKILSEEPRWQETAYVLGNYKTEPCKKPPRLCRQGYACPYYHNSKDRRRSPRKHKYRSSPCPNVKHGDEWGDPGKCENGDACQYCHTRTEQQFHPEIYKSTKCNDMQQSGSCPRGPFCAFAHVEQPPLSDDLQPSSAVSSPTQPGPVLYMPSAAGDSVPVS
procedure.details: nsRBNS (natural sequence RNA bind-n-seq); RBNS binding buffer (assumed for nsRBNS): 25 mM Tris pH 7.5, 150 mM KCl, 3 mM MgCl2, 0.01% Triton X-100, 500 ug/ml BSA, 20 U/ml SUPERase-In, 4 C; UNK is unkempt and MSI1 is Musashi-1; names of the RNAs are library labels; protein concentration not given here; high values mean tight binding
The full ranking holds about 5,800 sequences; the median of “enrichment r” is about 0.68, and the highest 2% start at about 11. Only a selection was taken, and the highest values are over-represented in it overall.
In this section, each of the binders is paired with its reported binding signal.

>  <binder>
chr6:132743869:132744491:-|three_prime_utr|ENSG00000112303|control|control|control (ssRNA) RNA: GGGAGUUCUACAGUCCGACGAUCAUGUGGGACCAGCAAUUCAGCAAUAACUUACCUGCUAAUAUUCAUAUUAUUAAUGAUCAUAGCUUUGCAAAAUAUUGUAAUGUUAUAGGGCGUCUCUUUAUCACUCAGCUUCUGCAUCAUCAACAGAGGAUUGAGCAUCA

>  <units.symbol>
enrichment R

>  <binding signal>
0.744

$$$$
>  <binder>
chr17:142788:147440:-|three_prime_utr|ENSG00000272636|control|control|control (ssRNA) RNA: GGGAGUUCUACAGUCCGACGAUCGAGACCUCAGCACCUGCCCAGGGGAAGGGGACACGCCCAUCUGGGAGCAAAGACCCUUCUAGAGGCCAGCCCCGGCUGAGAGGACAGGAGUGUGGGGGCGCCUUGGCGGACAGUGGGAACCAACAGAGGAUUGAGCAUCA

>  <units.symbol>
enrichment R

>  <binding signal>
0.805

$$$$
>  <binder>
chr10:52765379:52768136:-|three_prime_utr|ENSG00000165471|control|control|control (ssRNA) RNA: GGGAGUUCUACAGUCCGACGAUCUUGUUCCUUUUGUGGGCAAUCACUAAAAAUGAUCACUAACAGCACCAACAAAGCAAUAAUAGUAGUAGUAGUAGUUAGCAGCAGCAGUAGUAGUCAUGCUAAUUAUAUAAUAUUUUUAAUCAACAGAGGAUUGAGCAUCA

>  <units.symbol>
enrichment R

>  <binding signal>
16.5

$$$$
